Give growth for every item shown.
test system: NCI-H460 lung; test: NCI-60 one-dose screen, 48 h (100 = growth as untreated, 0 = no growth, -100 = all killed); settings: 10 µM unless noted
The panel holds about 83,000 compounds, 20% with a hit somewhere; the sample as a whole holds those more often.
Please reply with the bare figure in % and do not write the unit itself.

Indicate its recorded growth; the molecule in question is `COc1ccc(C(=O)Cn2c(C(=O)c3ccc(OC)cc3)nc3ccccc32)cc1`
10.5

Supply recorded growth for `CN(Cc1cc(Br)cc(Br)c1O)Cc1cc(Br)cc(Br)c1O` here.
19.1

Let me know recorded growth for COc1ccc(C(O)c2cc3c(N)c(C(=O)Nc4cccc(Cl)c4C)sc3nc2C)cc1 (stereo not drawn) , thanks.
-6.01

Look up growth of `COc1cc(C(=O)n2nc(N3CCOCC3)c3cc(-n4cccc4)ccc32)cc(OC)c1OC` and report it.
75.7

Return value of growth for input `COc1ccc(/C=C(/C(=O)n2cnnn2)c2cc(OC)c(OC)c(OC)c2)cc1` , no commentary.
12.7

Please report the measured growth for `C=C(C)[C@@H]1CC[C@]2(C(=O)N3CCN(C)CC3)CC[C@]3(C)[C@H](CC[C@@H]4[C@@]5(C)CC[C@H](OC(=O)c6ccccc6C(=O)O)C(C)(C)[C@@H]5CC[C@]43C)[C@@H]12`
103

Please give the documented growth of `CC1(C)CC[C@]23CC[C@]4(C)[C@H](CC[C@@H]5[C@@]6(C)C/C(=C/c7ccncc7)C(=O)C(C)(C)[C@@H]6CC[C@]54C)[C@H]2[C@H]1OC3`
75.8

Answer with the recorded growth of `C/C(=N\O)c1ccc(NC(=O)CSc2nnc(-c3cc(-c4ccc(S(N)(=O)=O)cc4)nc4ccccc34)n2-c2ccccc2)cc1` only.
67.2

# credit: PubChem BioAssay (NCI)
